System: B. thailandensis ATCC 700388
assay_summary: microbe, parasite or virus in culture
Format: cell-based
cond: Burkholderia thailandensis, ATCC700388, read-out: Minimum inhibitory concentration (MIC), B. thailandensis ATCC 700388
measured_attribute: MIC

# input Would you kindly share the measured MIC for O=C(NCCCN1CCN(C(=O)N[C@@H](C(=O)N[C@H]2Cc3ccc(F)c(C(=O)O)c3OB2O)c2cc(F)c(O)c(O)c2Cl)C(=O)C1=O)c1ccnc(F)c1F [Example 300] ?
# output 2 to 4 µg/mL

# input Give the measured MIC of O=C(NCCCN1CCN(C(=O)N[C@@H](C(=O)N[C@H]2Cc3ccc(F)c(C(=O)O)c3OB2O)c2cc(F)c(O)c(O)c2Cl)C1=O)Nc1cccc(O)c1 [Example 258] .
# output < 1 µg/mL

# input MIC for O=C(NCCS(=O)(=O)N1CCN(C(=O)NC(C(=O)N[C@H]2Cc3ccc(F)c(C(=O)O)c3OB2O)c2cc(F)c(O)c(O)c2Cl)C1=O)c1cccc(O)c1 (stereo partly drawn) [Example 261] ?
# output 2 to 4 µg/mL
